Taken from patent US20240327525A1.

target: T1, human CI-M6PR domain1-3His6 (human, UniProt P11717 41-467); experiment: BLI, association pH 7.4, dissociation at pH 6.5, mean of local fits
T1 construct: Recombinant, made in HEK293 cells; Biotinylated with NHS-PEG4-biotin for BLI; unlabelled in SEC-MALLS and crystallisation; also called CI-M6PR hDom1-3His6; hDom1-3His6
Entries annotated with measured koff
Entry rule: numbers only, all in s⁻¹.

binder: anti-CI-M6PR VHH8 (VHH, Purified by IMAC, so tagged; Labelled with Alexa Fluor 488 (NHS ester) in the imaging experiments) VHH: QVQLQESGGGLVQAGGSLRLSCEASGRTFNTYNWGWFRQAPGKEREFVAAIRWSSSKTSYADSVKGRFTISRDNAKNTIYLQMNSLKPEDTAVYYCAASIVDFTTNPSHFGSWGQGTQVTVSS
measured attribute: koff
result number: 0.00084

binder: humanized variant VHH8h2 (VHH, Made in E. coli, IMAC purified; tag not specified) VHH: DVQLVESGGGLVQPGGSLRLSCAASGRTFNTYNWGWFRQAPGKEREFVAAIRWSSSKTSYADSVKGRFTISRDNSKNTVYLQMNSLRPEDTAVYYCAASIVDFTTNPSHFGSWGQGTLVTVSS
measured attribute: koff
result number: 0.0011

We now examine a further binder.
Req: Entry humanized variant VHH7h2 (VHH, Made in E. coli, IMAC purified; tag not specified) VHH: DVQLVESGGGLVQPGGSLRLSCAASGIIFSDNRMDWYRQAPGKQREWVATLASYGWKTYADSVKGRFTISRDNSKNTVYLQMNSLRPEDTAVYYCKASSPVLNDIWGQGTLVTVSS has what koff?
Resp: 0.0094
